Tested on: affinity purified β2GPI-dependent antiphospholipid antibody
Assay: Competitive inhibition ELISA: recombinant β2GPI proteins compete for antibody binding to coated full length recombinant β2GPI
Set-up: species or system human
Conditions: Ab 7104
ATTRIBUTE_MEASURED: Max (maximum inhibition observed at concentrations tested)
Dear colleague, please send the value followed by its unit.

MOLECULE	RESULT
--345: recombinant β2GPI deletion mutant with domains 3, 4, 5 (protein) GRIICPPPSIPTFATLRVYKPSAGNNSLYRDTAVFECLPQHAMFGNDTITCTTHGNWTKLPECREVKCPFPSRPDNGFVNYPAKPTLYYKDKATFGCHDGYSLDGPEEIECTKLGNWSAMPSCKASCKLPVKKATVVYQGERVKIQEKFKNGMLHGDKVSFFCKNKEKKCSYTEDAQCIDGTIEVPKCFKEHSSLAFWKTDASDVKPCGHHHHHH	20%

The record that follows has no Max (maximum inhibition observed at concentrations tested) shown yet.
Reported Max (maximum inhibition observed at concentrations tested) for 1----: recombinant β2GPI protein with domain 1 only (SEQ ID NO:4 region), His6 tail (protein) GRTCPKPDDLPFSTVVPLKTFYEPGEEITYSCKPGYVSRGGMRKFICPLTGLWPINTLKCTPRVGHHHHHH was 90%

Data provenance: patent US6858210B1
